subject-of-test: JAK1-JH2 domain (Homo sapiens)
Construct: JAK1-JH2 domain or TYK2-JH2 domain enzyme in assay buffer
Sequence (P23458 583-855 limits assumed): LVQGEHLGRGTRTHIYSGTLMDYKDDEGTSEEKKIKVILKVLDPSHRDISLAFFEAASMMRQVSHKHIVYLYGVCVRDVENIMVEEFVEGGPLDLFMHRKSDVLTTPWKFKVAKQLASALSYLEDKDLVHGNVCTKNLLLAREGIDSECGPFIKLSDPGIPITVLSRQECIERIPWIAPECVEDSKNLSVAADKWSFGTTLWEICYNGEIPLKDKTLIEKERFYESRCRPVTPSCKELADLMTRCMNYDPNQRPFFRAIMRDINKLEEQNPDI
test-details: Binding activity test for JH2 domain of JAK1 (Tb-antibody/tracer FRET)
experimental-context: JH2 domain enzyme; 60 min at 25°C, then 4°C overnight; read-out: JAK1 JH2 Binding IC50
assay-readout: log10 IC50 (log10 of the value in nM)
Please keep in mind that the values are log10 of IC50 expressed in nM.

Solved cases (6 shown):
CCC(F)(F)c1cnc(NC(=O)C2CC2)cc1Nc1cccc(-c2cnn(C)n2)c1OC [Example 184] | 0.84
COC(=O)c1cnc(NC(=O)C2CC2)cc1Nc1nn(C)c2ccc([C@@H](O)C(F)(F)F)c(OC)c12 [Example 48B] | 1.93
[2H]C([2H])([2H])NC(=O)c1cnc(NC(=O)C2CC2)cc1Nc1cnn2ccc(COC([2H])([2H])[2H])c(OC)c12 [Example 29] | 1.22
[2H]C([2H])([2H])NC(=O)c1cnc(NC(=O)C2CC2)cc1Nc1nn(C)c2ccc(C(O)C(F)(F)F)c(OC)c12 (stereo not shown) [Example 49] | 0.61
[2H]C([2H])([2H])NC(=O)c1cnc(Nc2cc(CN3CCOCC3)n(C)n2)cc1Nc1nn(C)c2ccc([C@H](OC)C(F)(F)F)c(OC)c12 [Example 182] | 0.29
CCC(=O)c1cnc(NC(=O)C2CC2)cc1Nc1ccn2nccc2c1OC [Example 195, reference compound] | 1.83

Please turn your attention to the following entry.
# input Return reported log10 IC50; argument: [2H]C([2H])([2H])NC(=O)c1cnc(NC(=O)C2CC2)cc1Nc1nn(C)c2ccc(C(C)C(F)(F)F)c(OC)c12 (stereo not shown) [Example 191]
# output 0.78
